Source of measurements: patent US20070191336A1

The compounds listed here are annotated with their inhibition at 10 µM.
Molecular target: phospho p-38 alpha kinase (Homo sapiens, UniProt Q16539)
Construct: purchased Panvera
Sequence (Q16539 whole entry): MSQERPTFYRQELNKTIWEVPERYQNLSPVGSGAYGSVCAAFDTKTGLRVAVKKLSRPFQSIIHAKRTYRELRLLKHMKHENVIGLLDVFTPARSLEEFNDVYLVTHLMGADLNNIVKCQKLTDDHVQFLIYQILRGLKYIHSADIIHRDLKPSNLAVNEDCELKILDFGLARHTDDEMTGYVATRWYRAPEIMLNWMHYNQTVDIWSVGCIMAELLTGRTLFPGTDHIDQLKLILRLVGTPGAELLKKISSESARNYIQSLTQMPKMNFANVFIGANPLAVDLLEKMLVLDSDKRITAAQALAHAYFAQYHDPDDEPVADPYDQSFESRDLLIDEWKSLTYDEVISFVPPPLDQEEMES
Test: P-38 alpha kinase assay (spectrophotometric, pyruvate kinase/lactate dehydrogenase coupled)
Assay type: biochemical
Settings: read-out: % inhibition @ concentration, Table 2; at 10 uM
For clarity, give the value followed by its unit.

CC1(C(=O)NCc2cccc(-n3nc(C(C)(C)C)cc3NC(=O)Nc3ccc(Cl)cc3)c2)CC2(C)CC(C)(C1)C(=O)NC2=O (stereo not shown) = 83%
CC(C)(C)c1cc(NC(=O)Nc2cccc3ccccc23)n(-c2cccc(C(=O)N3C(=O)OC[C@@H]3c3ccccc3)c2)n1 = 60%
CC(C)(C)c1cc(NC(=O)Nc2cccc3ccccc23)n(-c2cccc(C(=O)N3C(=O)OC[C@H]3c3ccccc3)c2)n1 = 40%

Next compound, please.
IN: Which measured inhibition at 10 µM value corresponds to CC1(C(=O)O)CC2(C)CC(C)(C1)C(=O)N(Cc1cccc(-n3nc(C(C)(C)C)cc3NC(=O)Nc3ccc(Cl)cc3)c1)C2=O (stereo not shown) ?
OUT: 70%
